Test system: SW-620
ASSAY: NCI tumour cell line growth inhibition, 48 h
Calls of active or inactive are those of the source. No stated cut-off is given here; in the data, active = GI50 up to about 1.1 µM and inactive = higher.
Log the outcome using a class from class 1 = active, class 0 = inactive

Query string: Write down the call the test reported for this compound. Item: COC(=O)/C(=N/NC(N)=O)C(C(=O)C(=O)Nc1ccc(C)cc1)c1nc2ccc(C(=O)c3ccccc3)cc2nc1O (centres undefined)
Result string: class 0

Query string: For this compound, state the assay outcome: O=C1N[C@H]2[C@H](O)[C@H](O)[C@@H](O)[C@H](O)[C@@H]2c2cc3c(c(O)c21)OCO3
Result string: class 1

Query string: Record request — test call for COc1ccc(/C=C(\C(C)=O)C(=O)Nc2ccccc2)cc1
Result string: class 0

Query string: Dear colleague, could you share the recorded outcome for Cc1cc(=O)c2c([nH]1)NS(=O)(=O)NC2=O when you have a moment?
Result string: class 0

Query string: Tell me the recorded outcome of this test for C=CC(C)(C)C1(CC(OC)OC)C(=O)N(C)c2ccccc21 (centres undefined) .
Result string: class 0

Query string: Which result was noted for this compound in the test: O=c1[nH]c2[nH]c(-c3ccc(Br)cc3)cc2c2ccccc12
Result string: class 0

Query string: Entry O=C(CCCCCCCCC(=O)NN1C(=O)/C(=C\c2ccc(O)c(O)c2)SC1c1ccc(Cl)cc1)NN1C(=O)/C(=C\c2ccc(O)c(O)c2)SC1c1ccc(Cl)cc1 (centres undefined) : call = ?
Result string: class 0

Query string: I'd appreciate the recorded outcome for O=C(c1ccco1)N1CCCN(C(=O)c2ccco2)C1=S from this test.
Result string: class 0

Query string: Can you look up the reported call for N#Cc1c2c(c(Nc3cccc(C(F)(F)F)c3)n3c1nc1ccccc13)CCCC2 for me?
Result string: class 0

---

Tested on: K562
ASSAY: NCI tumour cell line growth inhibition, 48 h
Activity calls are given as the source filed them. No stated cut-off is given here; in the data, active = GI50 up to about 1.1 µM and inactive = higher.
Choose one outcome from this list and give only that: 1 (active), -1 (inactive)

Query string: Returns: the outcome recorded for COc1ccc(SCc2cc(OC)c(OC)c(OC)c2)cc1OC in this assay.
Result string: -1

Query string: Per the records of this test, what outcome belongs to COc1ccccc1C(=O)c1c(NCc2ccccc2)c(=O)c1=O ?
Result string: -1

Query string: Returns: the outcome recorded for O=C(c1ccc(Cl)cc1)N(C(=S)N1CCN(c2ccccc2)CC1)C1CCCCC1 in this assay.
Result string: -1

Query string: What call does the record list for Cc1cn(C2CC(OC(=O)c3ccc(Cl)cc3)C(COC(=O)c3ccc(Cl)cc3)O2)c(=O)[nH]c1=O (stereo not drawn) ?
Result string: -1

Query string: Query: recorded result category for Cc1nc(SCC(=O)Nc2ccc(Cl)cc2)c2sc(=S)n(-c3ccccc3)c2n1 in this test
Result string: -1

Query string: Could you please tell me the result logged for COc1ccc(-c2coc3cc(O)ccc3c2=O)cc1 in this assay?
Result string: -1

Query string: Which result was noted for this molecule in the test: COc1ccccc1N1C(=O)/C(=C\c2cc(OC)c(OC)c(OC)c2)SC1c1ccccc1 (stereo not drawn)
Result string: -1

Query string: Tell me the recorded outcome of this test for COc1ccc(C(=O)C(c2ccc(OCc3ccccc3)cc2)c2ccc(OCc3ccccc3)cc2)cc1 .
Result string: -1

Query string: What call does the record list for COc1ccccc1/C=C1\CCC(CCN(C)C)(C2=CCCC2)C1=O (stereo not drawn) ?
Result string: -1

Query string: Called result for c1ccc2c3c([nH]c2c1)C1C2CCCCN2C(c2ccncc2)N1CC3 (stereo not drawn)
Result string: -1

Query string: Given CC(C)C(OC(=O)c1ccc(NCC2=CC(=O)C=CC2=O)cc1)C(C)C , state the outcome it received in this test.
Result string: -1

Query string: Assay outcome for C[n+]1c2ccccc2n2c3ccccc3c(NCCCN3CCOCC3)c(C#N)c21 : what was it?
Result string: -1

Query string: Entry O=c1nc(NC2CCCCO2)ccn1CCO (stereo not drawn) : call = ?
Result string: -1

Query string: Identify the outcome logged in this assay for the molecule shown: CN(C)CCNC(=O)c1cc2ccccc2c2nc3ccccc3nc12
Result string: 1

Query string: # fetch the recorded call for CCOC(=O)C(=CN1CCNC1=S)C(=O)OCC here
Result string: -1

Query string: // param item: CN1C(=O)C(C(=O)Nc2ccccn2)C2C[C@@]1(C)Oc1ccccc12 (stereo partly drawn) ; yields the recorded call
Result string: -1

Query string: For this molecule, state the assay outcome: COP(=O)(OC)C(N)Cc1c[nH]c2ccccc12 (stereo not drawn)
Result string: -1

Query string: What is the recorded call for this molecule in the test? C(=N\NC1=NCCN1)/c1ccc(-c2cn3cc(/C=N/NC4=NCCN4)ccc3n2)cc1
Result string: -1

Query string: Outcome logged for C=CCN1C(=O)/C(=C/c2ccccc2)NC1=S in this assay:
Result string: -1

Query string: Look up the recorded call for OC1CCOc2ccccc21 (stereo not drawn) in this test.
Result string: -1

Query string: GET /call?item= CC(C)(Cl)C(Br)CC/C(=C/CBr)CBr.CC(C)(Cl)C(Br)CC/C(=C\CBr)CBr (stereo not drawn) returns the recorded outcome of this test.
Result string: -1

Query string: Answer briefly: the call reported for O=C(c1ccc(Cl)cc1)N(C(=S)OCCOc1ccccc1)c1ccccc1 in this assay.
Result string: -1

Query string: Just curious, what result did Nc1ccccc1C(=O)N/N=C1\C(=O)Nc2ccccc21 get here?
Result string: -1
